subject_of_test: P2Y purinoceptor 4 (Homo sapiens)
procedure_details: Agonist activity at human P2Y4 receptor expressed in human 1321N1 cells assessed as stimulation of PLC-induced [3H]inositol phosphate production at 100 uM after 30 mins by scintillation counting
Type: functional, cell-based
Calls of active or inactive are those of the source. The calls are words filed in the database; no cut-off is given here.
quantity_kind: Activity

- chemical_smiles: "O=c1[nH]c(=O)n([C@@H]2O[C@H](CCP(=O)(O)O)[C@@H](O)[C@H]2O)cc1/C=C/c1ccccc1"
  subject_of_test: "P2Y purinoceptor 4 (Homo sapiens)"
  quantity_kind: "Activity"
  result: "inactive"
- chemical_smiles: "O=c1[nH]c(=O)n([C@@H]2O[C@H](CCP(=O)(O)O)[C@@H](O)[C@H]2O)cc1-c1ccc2ccccc2c1"
  subject_of_test: "P2Y purinoceptor 4 (Homo sapiens)"
  quantity_kind: "Activity"
  result: "inactive"
- chemical_smiles: "O=c1[nH]c(=O)n([C@@H]2O[C@H](CCP(=O)(O)O)[C@@H](O)[C@H]2O)cc1-c1ccc(F)cc1"
  subject_of_test: "P2Y purinoceptor 4 (Homo sapiens)"
  quantity_kind: "Activity"
  result: "inactive"
